Each recorded value in this set is attributed to the supplement of paper PMC7411640.

System: MDA-MB-468
Experiment: phospho-S6 immunofluorescence (DAPI-normalised), per-plate z-score; higher = higher phospho-S6 signal (less pathway suppression)
Conditions: co-treatment: vehicle; 24 h
Structures can show the parent of a compound that is named as a salt.
Please use MET whenever phospho-S6 immunofluorescence (z-score) is not below -0.01, and NOT MET whenever it is.

Q: State whether the measured phospho-S6 immunofluorescence (z-score) reaches -0.01, counting equality as reaching it, for CC(C)Cc1ccc([C@@H](C)C(=O)NS(C)(=O)=O)cc1 [Reparixin (L-lysine salt)] (compound 10 µM)
Ans: NOT MET

Q: State whether the measured phospho-S6 immunofluorescence (z-score) reaches -0.01, counting equality as reaching it, for Cc1ccc(OCC(O)C(C)NC(C)C)c2c1CCC2 (configuration not stated) [ICI 118,551 (hydrochloride)] (compound 10 µM)
Ans: MET

Q: State whether the measured phospho-S6 immunofluorescence (z-score) reaches -0.01, counting equality as reaching it, for CC(C)C[C@H](NC(=O)CNC(=O)[C@H](Cc1ccc(O)cc1)NC(=O)[C@H](CO)NC(=O)[C@H](Cc1c[nH]c2ccccc12)NC(=O)[C@H](Cc1cnc[nH]1)NC(=O)[C@@H]1CCC(=O)N1)C(=O)N[C@@H](CCCNC(=N)N)C(=O)N1CCC[C@H]1C(=O)NCC(N)=O [Gonadorelin (acetate)] (compound 10 µM)
Ans: MET

Q: State whether the measured phospho-S6 immunofluorescence (z-score) reaches -0.01, counting equality as reaching it, for COCCCN1CCC(NC(=O)c2cc(Cl)c(N)c3c2OCC3)CC1 [Prucalopride] (compound 10 µM)
Ans: MET

Q: State whether the measured phospho-S6 immunofluorescence (z-score) reaches -0.01, counting equality as reaching it, for Cc1cc(OCCCS(C)(=O)=O)cc(C)c1-c1cccc(COc2ccc3c(c2)OC[C@H]3CC(=O)O)c1 (compound 10 µM)
Ans: NOT MET

Q: State whether the measured phospho-S6 immunofluorescence (z-score) reaches -0.01, counting equality as reaching it, for COC(=O)CCc1ccc(OCC(O)CNC(C)C)cc1 (configuration not stated) [Esmolol (hydrochloride)] (compound 10 µM)
Ans: NOT MET
